test: self-splicing fitness, log relative to wild type (ln ratio); higher = more splicing; Tetrahymena group I intron in knt gene, E. coli kanamycin selection, DiMSum; sequences stand for … in CUCUCU…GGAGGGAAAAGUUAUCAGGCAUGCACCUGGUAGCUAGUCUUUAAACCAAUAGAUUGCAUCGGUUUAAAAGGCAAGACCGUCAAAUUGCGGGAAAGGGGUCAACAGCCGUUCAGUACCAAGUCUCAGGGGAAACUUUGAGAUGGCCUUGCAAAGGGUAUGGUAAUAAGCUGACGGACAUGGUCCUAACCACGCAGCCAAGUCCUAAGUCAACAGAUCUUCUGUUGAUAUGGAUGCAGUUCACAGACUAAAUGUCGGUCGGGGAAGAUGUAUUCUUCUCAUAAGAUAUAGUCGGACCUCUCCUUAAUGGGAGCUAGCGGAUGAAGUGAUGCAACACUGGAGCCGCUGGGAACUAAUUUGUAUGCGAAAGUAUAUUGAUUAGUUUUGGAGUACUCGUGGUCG; details: 30 °C;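 further: selection with 25 µg/mL kanamycin versus none on LB agar overnight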
Measured Property: self-splicing fitness (ln)
Answers are plain numbers.

Completed entries (count: 5):
1. GUUGAGCAAUAUUACGUAUU
-3.74
2. CUUCAGCAAUAUUACGGCUG
-3.75
3. UAGCAGCAAUAUUACGGGUG
-0.481
4. GGUCAGCAAUAUUACGAGCA
-0.762
5. UGGUAGCAAUAUUACGGGAU
-3.14

Could you report self-splicing fitness (ln) for every entry in the following list?
1. ACCCAGCAAUAUUACGGGAU
2. AAUCAGCAAUAUUACGGCAA
3. UUAAAGCAAUAUUACGUUUA

Response given:
[-2.6, -0.417, -0.747]

Lab note: each sequence below needs its self-splicing fitness (ln) filled in.
1. GCACAGCAAUAUUACGCUUU
2. GUCCAGCAAUAUUACGCACC
3. GGGAAGCAAUAUUACGUUGU
4. GUUCAGCAAUAUUACGGAAC
5. AGGAAGCAAUAUUACGUACU
6. AAUCAGCAAUAUUACGGUCC
7. GAUCAGCAAUAUUACGACGG
8. GCUGAGCAAUAUUACGGCCA

Response given:
-0.861
-2
-3.23
-3.19
-1.76
-0.242
-2.63
-2.02
